# assay-overview: In vivo biodistribution by SPECT/CT imaging
# Parameters: species or system C57BL/6 mice
# run-conditions: female, C57BL/6, mouse, blood pool surrogate (left ventricle of the heart), iv, 30 MBq, total radioactivity; 3 h p.i.; ROI over left ventricle of the heart; mean ± SD, n = 6; SD; read-out: Blood Pool Surrogate %ID/g
Numbered stars: 1 amine (or outer) side, 2 acyl side, 3 side chain; on linkers, the order of the positions; unused ones are H or OH. Bridge positions count the residues as written; N and C are the ends. Peptide text beside a SMILES is read from it. * marks the point of attachment. X1 = O=C(O)CN1CCN(CC(=O)O)CCN(CC(=O)N2CCN(Cc3cc(C[*:1])cc(C[*:2])c3)CC2)CCN(CC(=O)O)CC1; Hexanoyl = CCCCCC(=O)*
measured-parameter: tissue uptake at 3 h
Your answer should be a number followed by the unit of measure.

Measured tissue uptake at 3 h of CCCCCC(=O)N[C@H]1CSCc2cc(cc(CN3CCN(C(=O)CN4CCN(CC(=O)O)CCN(CC(=O)O)CCN(CC(=O)O)CC4)CC3)c2)CSC[C@@H](C(=O)N[C@@H](CC(=O)O)C(N)=O)NC(=O)[C@H](Cc2ccccc2)NC(=O)[C@H](CCC(N)=O)NC(=O)[C@H]([C@@H](C)O)NC(=O)[C@@H]2CCCN2C(=O)[C@@H]2CCCN2C1=O [^177Lu-FAP-2287, metal not drawn] (Hexanoyl-CPPTQFCD-NH2; linker 1-7 via X1; N-terminus and C-terminus assumed) : 0.5 %ID/g

---

# assay-overview: In vivo biodistribution by SPECT/CT imaging
# Design: species or system C57BL/6 mice
# run-conditions: female, C57BL/6, mouse, kidney, total radioactivity; 72 h p.i.; 30 MBq iv; mean ± SD, n = 6; SD; read-out: Kidney %ID/g
# Experimental: All animal experiments were carried out under licenses approved by the respective authorities and in compliance with guidelines on animal welfare. […] Animals were anesthetized (isoflurane 3% in 100% O2) and eye lubricants were applied before each scan. Study was performed at Minerva Imaging ApS (Denmark). […] For quantification, VivoQuant (InviCRO) was used to draw regions of interest (ROIs) in relevant tissues, with a ROI drawn over the left ventricle of the heart to serve as blood pool surrogate. […]
Numbered stars: 1 amine (or outer) side, 2 acyl side, 3 side chain; on linkers, the order of the positions; unused ones are H or OH. Bridge positions count the residues as written; N and C are the ends. Peptide text beside a SMILES is read from it. * marks the point of attachment. X1 = O=C(O)CN1CCN(CC(=O)O)CCN(CC(=O)N2CCN(Cc3cc(C[*:1])cc(C[*:2])c3)CC2)CCN(CC(=O)O)CC1; Hexanoyl = CCCCCC(=O)*
measured-parameter: tissue uptake at 72 h (%ID/g)
Write down the numeric answer in %ID/g and omit the unit.

Data point: CCCCCC(=O)N[C@H]1CSCc2cc(cc(CN3CCN(C(=O)CN4CCN(CC(=O)O)CCN(CC(=O)O)CCN(CC(=O)O)CC4)CC3)c2)CSC[C@@H](C(=O)N[C@@H](CC(=O)O)C(N)=O)NC(=O)[C@H](Cc2ccccc2)NC(=O)[C@H](CCC(N)=O)NC(=O)[C@H]([C@@H](C)O)NC(=O)[C@@H]2CCCN2C(=O)[C@@H]2CCCN2C1=O [^177Lu-FAP-2287, metal not drawn] (Hexanoyl-CPPTQFCD-NH2; linker 1-7 via X1; N-terminus and C-terminus assumed) ; tissue uptake at 72 h = 0.6
